- method: qHTS for Inhibitors of human tyrosyl-DNA phosphodiesterase 1 (TDP1): qHTS in cells in presence of CPT; also: nearly all actives have a fitted effect of over 55% in size
- assayContext: chicken DT40 Tdp1-/-;hTDP1 cells + 20 nM CPT, ATP luminescence, 48 h; series mostly up to 46.2 µM
Hit rate of the full screen: of about 420,000 compounds, about 50,000 (12%) were called active. Roughly 26% stayed inconclusive and do not appear here. Calls follow the shape of the dose curve; as a rule, active = well fitted inhibition curve with a large enough effect; inconclusive = small, poorly fitted or top-dose-only effect; inactive = flat fitted curve, though single readings scatter. The full list was thinned out, with actives kept by preference.
// allowed return values: active, inactive

Cc1cc(NS(=O)(=O)c2ccc(NC(=O)C(C)Oc3cccc(C)c3C)cc2)nc(C)n1 (stereo not given) ... inactive

Identify the outcome logged in this assay for the molecule shown: O=S(=O)(c1cc(Cl)ccc1Cl)N1CCN(Cc2ccco2)CC1
inactive

* * *

- method: qHTS for Inhibitors of human tyrosyl-DNA phosphodiesterase 1 (TDP1): qHTS in cells in presence of CPT; also: nearly all actives have a fitted effect of over 55% in size; also: potency is read from the fitted curve at half-maximal effect
- assayContext: chicken DT40 Tdp1-/-;hTDP1 cells + 20 nM CPT, ATP luminescence, 48 h; series mostly up to 46.2 µM
Among all 420,000 compounds or so, about 50,000 (12%) were called active. Not shown: some 26% with an inconclusive outcome. This is one part of a sample in which actives are shown more often than they occur.
measurementKind: Potency

CCOc1ccc(C2C(C(=O)O)c3ccccc3C(=O)N2CCN2CCOCC2)cc1 (stereo not given) ... inactive
Cn1c(=O)c2c(n3c4ccccc4nc13)NC(=O)CC2c1cccc(Cl)c1 (stereo not given) ... inactive
COc1cc([N+](=O)[O-])ccc1NC(=O)CN1CCCC1 ... inactive
CCS(=O)(=O)Nc1ccc(C(=O)NCCSc2ccccc2)cc1 ... inactive
N#CC1(NC(=O)COC(=O)Cc2n[nH]c(=O)c3ccccc23)CCCCC1 ... inactive

Consider the compound shown here: CC(=O)c1ccc(OCCN2CCOCC2)cc1 What is its recorded Potency?
inactive

Consider the compound shown here: COc1ccc(O)c(C(=O)c2cnc3c(c2)c(-c2ccc(F)cc2)c(C#N)c(=O)n3C)c1 What is its recorded Potency?
inactive

* * *

- method: qHTS for Inhibitors of human tyrosyl-DNA phosphodiesterase 1 (TDP1): qHTS in cells in presence of CPT; also: nearly all actives have a fitted effect of over 55% in size
- assayContext: chicken DT40 Tdp1-/-;hTDP1 cells + 20 nM CPT, ATP luminescence, 48 h; series mostly up to 46.2 µM
Screen size: about 420,000 compounds; about 50,000 (12%) were called active. Roughly 26% stayed inconclusive and do not appear here. Calls follow the shape of the dose curve; as a rule, active = well fitted inhibition curve with a large enough effect; inconclusive = small, poorly fitted or top-dose-only effect; inactive = flat fitted curve, though single readings scatter. The entries come from a sample that favours actives as a whole.
// allowed return values: True (active), False (inactive)

COc1cccc(OCC(=O)NNC(=O)c2cnccn2)c1 ... False
CC(=O)C[C@@H]1OC[C@H](C)N1S(=O)(=O)c1ccc(C)cc1 ... False
COc1ccc(S(=O)(=O)N2CCN(C(=O)N(C)C)C2C)cc1 (stereo unspecified) ... False

Identify the outcome logged in this assay for the molecule shown: CCc1nccn1S(=O)(=O)c1cc(Br)ccc1Br
False

Identify the outcome logged in this assay for the molecule shown: CC1CC(NC(=O)/C(C#N)=C/c2ccc[nH]2)CC(C)(C)C1 (stereo unspecified)
True

Identify the outcome logged in this assay for the molecule shown: CCCCc1c(-c2ccc(Cl)cc2)ncn1CCc1ccccc1OC
True

Identify the outcome logged in this assay for the molecule shown: COc1ccccc1N(CC(=O)Nc1c(C)n(C)n(-c2ccccc2)c1=O)S(=O)(=O)c1ccccc1
False

Identify the outcome logged in this assay for the molecule shown: CC(C)CN(C(=O)CSc1nncn1C)C1CCS(=O)(=O)C1 (stereo unspecified)
False

Identify the outcome logged in this assay for the molecule shown: COc1cc(OC)c(C2C=C(C(=O)O)Nc3ncnn32)cc1OC (stereo unspecified)
False

Identify the outcome logged in this assay for the molecule shown: CCOc1ccc(N(CC(=O)NC2CCCCCC2)S(=O)(=O)c2c(C)[nH]c(=O)[nH]c2=O)cc1
False

Identify the outcome logged in this assay for the molecule shown: CSc1ncccc1C(=O)NCc1ccccc1Cl
False

* * *

- method: qHTS for Inhibitors of human tyrosyl-DNA phosphodiesterase 1 (TDP1): qHTS in cells in presence of CPT; also: nearly all actives have a fitted effect of over 55% in size
- assayContext: chicken DT40 Tdp1-/-;hTDP1 cells + 20 nM CPT, ATP luminescence, 48 h; series mostly up to 46.2 µM
The whole screen tested about 420,000 compounds, of which about 50,000 (12%) were called active. About 26% were inconclusive and are not listed. The call rests on the fitted dose curve; in most records, active means well fitted inhibition curve with a large enough effect; inconclusive means small, poorly fitted or top-dose-only effect; inactive means flat fitted curve, though single readings scatter. Shown is part of a subset that was picked to be rich in actives.
// allowed return values: active, inactive

These recorded examples may help you get a feel for the data.
CS(=O)(=O)Nc1ccccc1C(=O)OCC(=O)NC1CC1 ... inactive
COc1ccc(C(CNC(=O)COc2ccccc2OC)N2CCCCC2)cc1 (configuration not stated) ... inactive
CCN1CCN(CCNC(=O)c2ccc3c(c2)NC(=O)/C(=C\c2cccc(Cl)c2)S3)CC1 ... active
COc1ccccc1C(=O)NCCC(=O)NCC(c1ccco1)N1CCCCC1 (configuration not stated) ... inactive
O=C(Oc1c(-c2ccco2)oc2ccccc2c1=O)c1cccnc1 ... active

Identify the outcome logged in this assay for the molecule shown: COc1ccc(N2CCN(C(=O)c3cn(C)c4ccc(S(=O)(=O)N5CCOCC5)cc4c3=O)CC2)cc1
inactive

Identify the outcome logged in this assay for the molecule shown: CCOc1ccc(CC(=O)NCCc2csc3nc(-c4ccccc4F)nn23)cc1
inactive

Identify the outcome logged in this assay for the molecule shown: CC(C)C(OC(=O)c1cccs1)C(=O)NC1CCCCC1 (configuration not stated)
inactive

Identify the outcome logged in this assay for the molecule shown: Cc1c(C=O)c2ccccc2n1CC(=O)O
inactive

Identify the outcome logged in this assay for the molecule shown: O=C(NCCN1CCOCC1)Nc1cccc(Cl)c1
inactive

Identify the outcome logged in this assay for the molecule shown: O=C(NCCCN1CCCCC1)c1ccc2c(c1)NC(=O)C(N1CCOCC1)S2 (configuration not stated)
inactive

Identify the outcome logged in this assay for the molecule shown: CC(=O)c1cccc(NC(=O)C2CCCN(S(=O)(=O)c3cccc4nonc34)C2)c1 (configuration not stated)
inactive

Identify the outcome logged in this assay for the molecule shown: COc1ccc(S(=O)(=O)NCC(c2ccc(N(C)C)cc2)N2CCCC2)cc1 (configuration not stated)
inactive

Identify the outcome logged in this assay for the molecule shown: CCCCNC(=O)c1c[nH]c2ccc(S(=O)(=O)Nc3ccc(OCC)cc3)cc2c1=O
inactive

Identify the outcome logged in this assay for the molecule shown: Cc1ccc2c(c1)N(CC(=O)N1CCCC(C)C1)C(=O)CO2 (configuration not stated)
inactive

Identify the outcome logged in this assay for the molecule shown: CCN1CCCC1CNC(=O)c1cc2cc(OC)c(OC)cc2[nH]1 (configuration not stated)
inactive

Identify the outcome logged in this assay for the molecule shown: COc1ccccc1NC(=O)C1=C(C)Nc2ncnn2C1c1ccc(C)o1 (configuration not stated)
inactive

Identify the outcome logged in this assay for the molecule shown: O=C(Oc1cccnc1)c1cc2ccccc2oc1=O
inactive

Identify the outcome logged in this assay for the molecule shown: CCN1CCCC1CNC(=O)c1ccc2c(c1)NC(=O)/C(=C\c1ccccc1F)S2 (configuration not stated)
active

* * *

- method: qHTS for Inhibitors of human tyrosyl-DNA phosphodiesterase 1 (TDP1): qHTS in cells in presence of CPT; also: nearly all actives have a fitted effect of over 55% in size
- assayContext: chicken DT40 Tdp1-/-;hTDP1 cells + 20 nM CPT, ATP luminescence, 48 h; series mostly up to 46.2 µM
In all, about 420,000 compounds went through this assay and about 50,000 (12%) were called active. Not shown: some 26% with an inconclusive outcome. Calls follow the shape of the dose curve; as a rule, active = well fitted inhibition curve with a large enough effect; inconclusive = small, poorly fitted or top-dose-only effect; inactive = flat fitted curve, though single readings scatter. The list comes from a sample in which actives are over-represented; it also holds close analogues and randomly drawn compounds.
// allowed return values: active, inactive

Identify the outcome logged in this assay for the compound shown: Cc1ccc(CNC(=O)Cn2cnc3c(NCc4ccccc4)ncnc32)o1
active

Identify the outcome logged in this assay for the compound shown: CCCNC(=O)CCC(=O)N1Cc2ccccc2Oc2ncccc21
inactive

Identify the outcome logged in this assay for the compound shown: O=C(c1cc(C2CCCCN2S(=O)(=O)c2ccccc2)on1)N1CCOCC1 (stereo unspecified)
inactive

Identify the outcome logged in this assay for the compound shown: Cc1ccc(CNC(=O)Cn2cnc(S(=O)(=O)N3CCCCC3)c2)o1
inactive

Identify the outcome logged in this assay for the compound shown: O=C(CSc1nc2[nH]c(=O)[nH]c(=O)c2s1)Nc1cccc(F)c1
inactive

Identify the outcome logged in this assay for the compound shown: Cc1ccc(NC(=O)Cn2cnc3c(OCc4ccccc4)ncnc32)cc1C
inactive

* * *

- method: qHTS for Inhibitors of human tyrosyl-DNA phosphodiesterase 1 (TDP1): qHTS in cells in presence of CPT; also: nearly all actives have a fitted effect of over 55% in size
- assayContext: chicken DT40 Tdp1-/-;hTDP1 cells + 20 nM CPT, ATP luminescence, 48 h; series mostly up to 46.2 µM
Out of some 420,000 compounds screened, about 50,000 (12%) were called active. Roughly 26% stayed inconclusive and do not appear here. Calls follow the shape of the dose curve; as a rule, active = well fitted inhibition curve with a large enough effect; inconclusive = small, poorly fitted or top-dose-only effect; inactive = flat fitted curve, though single readings scatter. Shown is part of a subset that was picked to be rich in actives.
// allowed return values: 1 = active, 0 = inactive

These recorded examples may help you get a feel for the data.
O=C1C2CCCN2C(=O)N1CCCCN1CCN(c2cccc(C(F)(F)F)c2)CC1 (stereo not drawn) ... 0
Cc1ccc(S(=O)(=O)/N=C(/Nc2ccccn2)c2ccc(Cl)cc2)cc1 ... 0
CC1=Nc2cc(C(=O)N3CCC(C)CC3)ccc2Sc2ccc(Cl)cc21 ... 1
CC(C)Nc1nc(NCCOc2ccccc2Cl)c2sccc2n1 ... 1
CCOC(=O)CSC1=Nc2ccccc2C2=NC(CCC(=O)NCc3ccc(F)cc3)C(=O)N12 (stereo not drawn) ... 0
Brc1cc(/C=N/n2cnnc2)oc1Br ... 0
CNS(=O)(=O)c1cccc(C(=O)OCC(=O)N2c3ccccc3NC(=O)C2(C)C)c1 ... 0
O=S(=O)(/N=C(/Nc1ccccn1)c1ccccc1)c1ccc(Cl)cc1 ... 0
C=CCOc1ccccc1CNn1c(C)n[nH]c1=S ... 0
CC1(C(=O)Nc2ccc3c(c2)OCCO3)CN(S(C)(=O)=O)CC(=O)N1Cc1cccc(F)c1 (stereo not drawn) ... 0

Identify the outcome logged in this assay for the molecule shown: Cn1c(=O)c2c(nc(Oc3ccc(C#N)cc3)n2Cc2ccc(Cl)cc2Cl)n(C)c1=O
0

Identify the outcome logged in this assay for the molecule shown: CC(C)CCn1cnc2c1c(=O)n(CC(=O)NC(N)=O)c(=O)n2Cc1ccccc1
0

Identify the outcome logged in this assay for the molecule shown: O=C(NCc1ccccc1Cl)C(=O)NCC1CCCN1S(=O)(=O)c1cccs1 (stereo not drawn)
0

Identify the outcome logged in this assay for the molecule shown: Cc1noc(C)c1S(=O)(=O)N(C)C[C@H]1Oc2c(NC(=O)Nc3ccc4c(c3)OCO4)cccc2C(=O)N([C@H](C)CO)C[C@@H]1C
0
